kon reference
Molecular target: T1, human C1s (human, UniProt P09871 16-688)
T1 construct: also called hC1s; serum-derived human C1s (CompTech)
T1 sequence: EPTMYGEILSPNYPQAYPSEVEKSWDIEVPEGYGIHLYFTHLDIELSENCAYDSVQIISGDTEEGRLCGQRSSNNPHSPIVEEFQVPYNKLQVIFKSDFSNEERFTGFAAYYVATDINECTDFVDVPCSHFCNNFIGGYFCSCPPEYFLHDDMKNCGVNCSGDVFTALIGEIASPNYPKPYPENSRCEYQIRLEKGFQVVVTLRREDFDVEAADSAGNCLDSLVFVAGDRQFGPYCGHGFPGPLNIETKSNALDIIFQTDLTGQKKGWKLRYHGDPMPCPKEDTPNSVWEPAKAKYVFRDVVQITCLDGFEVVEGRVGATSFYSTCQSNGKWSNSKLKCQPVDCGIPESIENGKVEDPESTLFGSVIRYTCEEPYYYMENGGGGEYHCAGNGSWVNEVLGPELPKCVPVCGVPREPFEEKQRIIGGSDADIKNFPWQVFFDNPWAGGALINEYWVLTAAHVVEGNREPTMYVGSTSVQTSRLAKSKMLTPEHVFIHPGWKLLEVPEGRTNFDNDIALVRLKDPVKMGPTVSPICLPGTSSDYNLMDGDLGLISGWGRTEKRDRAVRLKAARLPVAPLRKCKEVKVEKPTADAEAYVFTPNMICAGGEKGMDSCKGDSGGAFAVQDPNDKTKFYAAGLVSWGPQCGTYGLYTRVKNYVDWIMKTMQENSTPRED
Assay: SPR, Ab captured; pH 5.8, 1.2 mM Ca
The reply should be a number in M⁻¹ s⁻¹, with the unit left off.

Guide cases for kon, answers given:
[[record]]
binder = "C1_IPN92H0033-SG4GK/IPN93L0023-SK1 (antibody, human IgG4 S228P, kappa, name in Kabat numbering, V domains shown, also called IPN92H0033/IPN93L0023) VH: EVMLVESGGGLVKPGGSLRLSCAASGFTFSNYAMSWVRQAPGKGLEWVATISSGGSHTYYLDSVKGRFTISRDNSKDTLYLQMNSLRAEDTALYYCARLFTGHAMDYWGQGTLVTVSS VL: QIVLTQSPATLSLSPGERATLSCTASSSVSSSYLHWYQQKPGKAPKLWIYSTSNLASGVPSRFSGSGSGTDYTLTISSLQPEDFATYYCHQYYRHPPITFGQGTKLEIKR"
reported = 559000

[[record]]
binder = "C1_IPN92H0026-SG4GK/IPN93L0030-SK1 (antibody, human IgG4 S228P, kappa, name in Kabat numbering, V domains shown, also called IPN92H0026/IPN93L0030) VH: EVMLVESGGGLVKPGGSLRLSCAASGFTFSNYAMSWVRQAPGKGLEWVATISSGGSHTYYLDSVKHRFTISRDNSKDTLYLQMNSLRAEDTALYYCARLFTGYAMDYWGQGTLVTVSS VL: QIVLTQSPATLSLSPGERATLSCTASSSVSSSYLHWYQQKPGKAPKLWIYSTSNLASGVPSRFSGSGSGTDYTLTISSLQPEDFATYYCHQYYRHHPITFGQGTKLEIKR"
reported = "2.26e+06"


Next up:
Notebook: C1_IPN92H0038-SG4GK/IPN93L0029-SK1 (antibody, human IgG4 S228P, kappa, name in Kabat numbering, V domains shown, also called IPN92H0038/IPN93L0029) VH: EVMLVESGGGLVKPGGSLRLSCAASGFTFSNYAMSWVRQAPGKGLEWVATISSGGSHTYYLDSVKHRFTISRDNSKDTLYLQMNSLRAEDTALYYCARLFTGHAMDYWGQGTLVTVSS VL: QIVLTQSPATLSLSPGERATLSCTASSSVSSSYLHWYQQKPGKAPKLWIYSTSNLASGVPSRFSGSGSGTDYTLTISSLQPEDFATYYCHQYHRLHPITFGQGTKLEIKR , kon read as 539000

src = patent US20210032365A1
